# subject of test: Protein-arginine deiminase type-4 (Homo sapiens)
# method description: protein arginine deiminase 4 enzyme blockade – biochemical, fluorescence polarization, 1536-well format, primary screen (AID 485272)
# condition description: recombinant PAD4, RCA probe fluorescence polarization; at 6.36 µM
Out of some 330,000 compounds screened, about 1,300 (0.39%) were called active.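 The calls were made as follows: active = percent inhibition above a cutoff equal to the mean of all tested compounds plus 3 SD (cut at about 15% in these data); inactive = the rest.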 Many of the other results were omitted from the sample, so actives are more common in it than they were.
Outcomes: active, inactive

[[record]]
molecule = "COc1ccc(-c2nc(CS(=O)CC(=O)NCc3ccccn3)c(C)o2)cc1 (centres undefined)"
label_value = "active"

[[record]]
molecule = "COc1cccc(-c2nc(CS(=O)CC(=O)NCc3ccc(F)cc3)c(C)o2)c1 (centres undefined)"
label_value = "inactive"

[[record]]
molecule = "COC(=O)CCCC1=CC2=CC(=O)C(C)(OC(=O)c3cccs3)C(=O)C2=CN1c1cccc(C#N)c1 (centres undefined)"
label_value = "inactive"

[[record]]
molecule = "C=CCN(C(=O)Nc1ccc2c(c1)nc(C)n2C)c1ccccc1"
label_value = "inactive"

[[record]]
molecule = "COC(=O)c1noc(C)c1-c1ccnn1C(=O)c1ccc(Cl)cc1"
label_value = "inactive"

[[record]]
molecule = "COC(=O)CCCC1=CC2=CC(=O)C(C)(OC(=O)c3cccs3)C(=O)C2=CN1CC1CC1 (centres undefined)"
label_value = "active"

[[record]]
molecule = "CCc1nnc(SCc2cccc(F)c2)nc1CC"
label_value = "active"

[[record]]
molecule = "COCCNC(=O)Nc1ccc2nc(-c3ccco3)c(-c3ccco3)nc2c1"
label_value = "active"

[[record]]
molecule = "Nc1cc(N)nc(SCc2cccc(F)c2)n1"
label_value = "inactive"

[[record]]
molecule = "CC(C)CNC(=S)NC(=O)c1ccc(Cl)cc1"
label_value = "inactive"

[[record]]
molecule = "O=C(CSc1nc2ccccc2c(=O)n1Cc1ccc(F)cc1)NCC1CCCO1 (centres undefined)"
label_value = "inactive"

[[record]]
molecule = "Cc1ccc(C(NC(=O)N2CCCC2)C(Cl)(Cl)Cl)cc1F (centres undefined)"
label_value = "inactive"

[[record]]
molecule = "CCCCC[C@@H]1C=C(C(=O)O)[C@H](c2ccc(C#N)cc2)N1S(=O)(=O)c1ccc(C)cc1"
label_value = "inactive"

[[record]]
molecule = "O=C(CN1C(=O)CCS(=O)(=O)c2ccccc21)NCc1ccc(F)cc1"
label_value = "inactive"

[[record]]
molecule = "CC(C)N(Cc1ccccc1)C(=O)COC(=O)c1ccccc1SCC(=O)N1CCCC1"
label_value = "inactive"

[[record]]
molecule = "Cc1nn(C)c(C)c1NS(=O)(=O)c1ccc(OC(F)(F)F)cc1"
label_value = "inactive"

[[record]]
molecule = "O=C(NCc1ccccn1)c1ccc2nc(-c3ccco3)c(-c3ccco3)nc2c1"
label_value = "inactive"

[[record]]
molecule = "Cc1ccc(NC(=O)Nc2ccc3oc(C)nc3c2)cc1"
label_value = "inactive"

[[record]]
molecule = "CCN(C(=O)CSc1nc(N)cc(=O)[nH]1)C1CCS(=O)(=O)C1 (centres undefined)"
label_value = "inactive"

[[record]]
molecule = "CC(C)C(NC(=O)c1ccc(Cl)cc1)C(=O)O (centres undefined)"
label_value = "active"

[[record]]
molecule = "O=C(CCn1c(SCC(=O)c2ccccc2)nc2ccccc2c1=O)NCc1ccc(F)cc1"
label_value = "active"

[[record]]
molecule = "Cn1c(Nc2cccc(Cl)c2)nc2ccccc21"
label_value = "active"

[[record]]
molecule = "COCCCNC(=S)N1CCCC(c2nc3cc(C)c(C)cc3[nH]2)C1 (centres undefined)"
label_value = "inactive"

[[record]]
molecule = "CC(=O)Oc1ccc(N(C(C)=O)S(=O)(=O)c2ccc3ccccc3c2)cc1Br"
label_value = "inactive"

[[record]]
molecule = "Cn1c(NC(=O)c2ccccc2)nc2ccccc21"
label_value = "inactive"

[[record]]
molecule = "Cc1ccc(-c2cc(C(=O)NCc3cn(C)nc3C)c3cc(Br)ccc3n2)cc1"
label_value = "inactive"

[[record]]
molecule = "O=C(CSc1nc2ccccc2c(=O)n1-c1ccc(F)cc1)NC1CC1"
label_value = "inactive"

[[record]]
molecule = "Cc1nn(-c2ccccc2)c(C)c1NC(=O)CCl"
label_value = "inactive"

[[record]]
molecule = "COc1cc(C(=O)NCc2ccc3c(c2)cc(C)n3C)cc(OC)c1OC"
label_value = "active"

[[record]]
molecule = "O=C(Nc1ccc(S(=O)(=O)N2CCCCCC2)cc1)c1c(F)cccc1F"
label_value = "inactive"

[[record]]
molecule = "O=c1[nH]n(-c2ccc([N+](=O)[O-])cc2)c(=O)c2ccccc12"
label_value = "active"

[[record]]
molecule = "Cc1cc(=O)[nH]c(SCc2cccc(F)c2)n1"
label_value = "inactive"

[[record]]
molecule = "O=C(NCCc1ccccc1Cl)C1CCC(=O)N(CCCc2ccccc2)C1 (centres undefined)"
label_value = "inactive"

[[record]]
molecule = "Cc1c(C(=O)Nc2cccc(Cl)c2)cn2c(nc3ccccc32)c1C#N"
label_value = "inactive"

[[record]]
molecule = "COC(=O)CCCC1=CC2=CC(=O)C(C)(OC(=O)c3cccs3)C(=O)C2=CN1CC(C)C (centres undefined)"
label_value = "inactive"

[[record]]
molecule = "O=S(=O)(Nc1ccc(O)c2ccccc12)c1ccc(OC(F)(F)F)cc1"
label_value = "active"

[[record]]
molecule = "Cc1cc(NS(=O)(=O)c2ccc(NC(=S)NC(=O)c3ccc(F)cc3Cl)cc2)no1"
label_value = "inactive"

[[record]]
molecule = "Cc1nn(-c2ccccc2)c(C)c1NC(=O)COC(=O)c1cc(Cl)ccc1O"
label_value = "inactive"

[[record]]
molecule = "COc1ccc(-c2nc(CS(=O)CC(=O)NCc3ccccc3)c(C)o2)cc1OC (centres undefined)"
label_value = "inactive"

[[record]]
molecule = "COc1ccc(S(=O)(=O)N2CCCCCC2)cc1C(=O)OCC(=O)Nc1cc(C)on1"
label_value = "inactive"

[[record]]
molecule = "Cc1nc2ccc(NC(=O)C(F)(F)F)cc2o1"
label_value = "active"

[[record]]
molecule = "COc1ccc(OCc2ccc(-c3nc4ccccc4c(=O)n3N)o2)cc1"
label_value = "inactive"

[[record]]
molecule = "Cc1ccc(C(=O)CSc2nc3ccccc3c(=O)n2N)o1"
label_value = "active"

[[record]]
molecule = "Cc1cc(Nc2ccccc2)n(C(=O)c2ccc(N)cc2)n1"
label_value = "inactive"

